Kindly supply the reported Emax values for the records listed here.
Test system: HIT-T15
assay.comment: Agonist activity at GPR119 receptor in hamster HIT-T15 cells assessed as intracellular cAMP level relative to AR-231,453
Assay type: cell-based
measurement.setup: Cricetinae
Give bare numbers, in %.

# annotated cases, reported Emax shown
Ask: Please report the measured Emax for `CS(=O)(=O)c1ccc(Nc2ncnc3c2cnn3C2CCN(Cc3ccccc3)CC2)cc1`
Reply: 64

Ask: Output Emax of `CS(=O)(=O)c1ccc(Oc2ncnc3c2cnn3C2CCN(Cc3ccccc3)CC2)cc1`
Reply: 87

Record Emax per entry; entries follow.
1. CC(=O)c1ccc(Oc2ncnc3c2cnn3C2CCN(C(=O)OC(C)(C)C)CC2)cc1
2. CS(=O)(=O)c1ccc(Oc2ncnc3c2cnn3C2CCN(Cc3cccc(Cl)c3)CC2)cc1

Reply:
1. 83
2. 83

Give Emax for each of the items listed below.
1. CC(C)(C)OC(=O)N1CCC(n2ncc3c(Oc4ccc(F)cc4)ncnc32)CC1
2. CC(C)(C)OC(=O)N1CCC(n2ncc3c(Oc4ccccc4)ncnc32)CC1
3. CC(C)(C)OC(=O)N1CCC(n2ncc3c(Oc4ccccc4F)ncnc32)CC1
4. CS(=O)(=O)c1ccc(Oc2ncnc3c2cnn3C2CCN(C(=O)OCC(Cl)(Cl)Cl)CC2)cc1

Reply:
[82, 30, 107, 90]

Ask: Retrieve Emax measured for `CCOC(=O)N1CCC(n2ncc3c(Oc4ccc(S(C)(=O)=O)cc4)ncnc32)CC1` and print it.
Reply: 81
